Overview of recorded IC50 for various compounds
# TEST_TARGET: PD1/PD-L1 (Homo sapiens)
# Sequence (Q9NZQ7 19-239 limits assumed): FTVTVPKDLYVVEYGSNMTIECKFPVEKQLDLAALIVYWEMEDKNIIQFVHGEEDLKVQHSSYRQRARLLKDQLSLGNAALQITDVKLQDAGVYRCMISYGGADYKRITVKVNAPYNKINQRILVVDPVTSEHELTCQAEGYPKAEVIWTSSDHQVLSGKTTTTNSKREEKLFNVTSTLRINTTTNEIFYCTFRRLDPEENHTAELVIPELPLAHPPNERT
# ASSAY_PROCEDURE: PD-1/PD-L1 homogeneous time-resolved fluorescence (HTRF) binding experiment
# Parameters: purchased BPS Biosciences
# ASSAY_CONDITIONS: HTRF (TR-FRET), PD-L1-biotin, PD1-Eu
The reply should contain only the number, in nM.

>  <COMPOUND>
Cc1cc(C(=O)Nc2cccc(-c3cccc(NC(=O)c4ccc(CNCCO)cn4)c3C)c2C)nc2c1CCN(CCO)C2 [Compound 1]

>  <ENDPOINT_RESULT>
2.08

$$$$
>  <COMPOUND>
Cc1c(NC(=O)c2ccc(CNCCO)cn2)cccc1-c1cccc(NC(=O)c2cc(NCCO)c3c(n2)CN(CCO)CC3)c1Cl [Compound 18]

>  <ENDPOINT_RESULT>
3.16

$$$$
>  <COMPOUND>
Cc1cc(C(=O)Nc2cccc(-c3cccc(NC(=O)c4ccc(CNCCO)cn4)c3C)c2Cl)nc2c1CCN(CC(=O)O)C2 [Compound 17]

>  <ENDPOINT_RESULT>
1.49

$$$$
>  <COMPOUND>
Cc1cc(C(=O)Nc2cccc(-c3cccc(NC(=O)c4ccc(CNCCO)cn4)c3C)c2Cl)nc2c1CCN(C1CCC(C)(C(=O)O)CC1)C2 (stereo not shown) [Compound 20]

>  <ENDPOINT_RESULT>
3.58

$$$$
>  <COMPOUND>
Cc1cc(C(=O)Nc2cccc(-c3cccc(NC(=O)c4ccc(CNCCO)cn4)c3C)c2C)nc2c1CN(CCO)CC2 [Compound 2]

>  <ENDPOINT_RESULT>
2.1

$$$$

Input COc1nc(-c2cccc(-c3cccc(NC(=O)c4cc(C)c5c(n4)CN(CCO)CC5)c3Cl)c2Cl)cnc1CN1CC(O)C1 [Compound 21] , output reported IC50. 7.14

Return IC50 (reported value) for this compound: Cc1cc(C(=O)Nc2cccc(-c3cccc(NC(=O)c4ccc(CNCCO)cn4)c3Cl)c2C)nc2c1CCN(CCO)C2 [Compound 6] 4.65
